biological target: UniProtKB Q9H8M2; test: Degradation of BRD9 (IF), immunofluorescence in MV4-11 cells, 24 hours (Assay Protocol 2); type: cell-based; set-up: A suspension of MV4-11 cells (ATCC CRL-9591) was prepared; host or cells: MV4-11; conditions: Assay protocol 2; BRD9 degradation; read-out: DC50
Sequence (Q9H8M2 whole entry): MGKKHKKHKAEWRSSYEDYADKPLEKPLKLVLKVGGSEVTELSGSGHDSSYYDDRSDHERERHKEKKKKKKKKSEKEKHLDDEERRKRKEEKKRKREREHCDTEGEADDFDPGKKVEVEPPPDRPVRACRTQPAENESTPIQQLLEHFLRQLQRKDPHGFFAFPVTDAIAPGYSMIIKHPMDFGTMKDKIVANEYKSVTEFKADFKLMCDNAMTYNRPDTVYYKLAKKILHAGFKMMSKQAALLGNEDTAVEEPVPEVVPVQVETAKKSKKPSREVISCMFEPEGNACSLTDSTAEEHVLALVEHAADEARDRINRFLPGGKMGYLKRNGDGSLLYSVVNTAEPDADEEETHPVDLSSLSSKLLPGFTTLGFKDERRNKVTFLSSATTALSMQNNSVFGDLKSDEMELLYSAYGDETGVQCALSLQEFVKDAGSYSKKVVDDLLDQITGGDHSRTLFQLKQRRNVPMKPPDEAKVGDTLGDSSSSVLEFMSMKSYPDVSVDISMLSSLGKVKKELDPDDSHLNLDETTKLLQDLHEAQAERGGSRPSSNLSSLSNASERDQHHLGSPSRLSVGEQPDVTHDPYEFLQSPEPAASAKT
observable: DC50

Some compounds with known DC50 results, for comparison:
• COc1cc(-c2cn(C)c(=O)c(C)c2C)cc(OC)c1CN1CCN(Cc2cccc3c2CCN(C(=O)/C(C#N)=C/c2cccc(Br)n2)C3C)C(C)(C)C1 (mixture of isomers) = 1.25 to 10 nM
• COc1cc(-c2cn(C)c(=O)c(C)c2C)cc(OC)c1CN1CCN(Cc2cccc3c2CCN(C(=O)/C(C#N)=C/C2CCOCC2)C3C)C2(CC2)C1 (mixture of isomers) = 1.25 to 10 nM
• COc1cc(-c2cn(C)c(=O)c(C)c2C)cc(OC)c1CN(C)Cc1cccc2c1CCN(C(=O)/C(C#N)=C/c1cccc(C(F)(F)F)n1)C2C (mixture of isomers) = < 1.25 nM
• COc1cc(-c2cn(C)c(=O)c(C)c2C)ccc1OC1CCN(Cc2cccc3c2CCN(C(=O)/C(C#N)=C/C(C)(C)C)[C@H]3C)CC1 (single isomer, unassigned) = 1.25 to 10 nM
• COc1cc(-c2cn(C)c(=O)c(C)c2C)cc(OC)c1CN1CCN(Cc2cccc3c2CCN(C(=O)/C(C#N)=C/c2cccc(Br)n2)C3C(C)C)CC1 (mixture of isomers) = 1.25 to 10 nM

Return reported DC50 values for all items listed beneath this line.
1. COc1cc(-c2cn(C)c(=O)c(C)c2C)cc(OC)c1CN1CCC2(CC1)CN(c1cccc3c1CCN(C(=O)/C(C#N)=C/C(C)(C)C)[C@@H]3C)C2 (mixture of isomers)
2. COc1cc(/C=C(\C#N)C(=O)N2CCc3c(CN4CCN(Cc5c(OC)cc(-c6cn(C)c(=O)c(C)c6C)cc5OC)CC4)cccc3C2C)c(F)cn1 (mixture of isomers)
3. COc1cc(-c2cn(C)c(=O)c(C)c2C)cc(OC)c1CN1CCN(Cc2cccc(C3CCCN3C(=O)/C(C#N)=C/c3cccc(C(F)(F)F)n3)c2)CC1 (stereo not shown)
4. COc1cc(-c2cn(C)c(=O)c(C)c2C)cc(OC)c1CN1CCN(Cc2cccc3c2CCN(C(=O)/C(C#N)=C/C(C)(C)CF)C3C(C)C)C2(CC2)C1 (single isomer, unassigned) [Compound C77]
5. COc1cc(-c2cn(C)c(=O)c(C)c2C)cc(OC)c1CN1CC2CCC(C1)N2Cc1cccc2c1CCN(C(=O)/C(C#N)=C/C(C)(C)C)C2C (mixture of isomers)

["10 to 25 nM", "< 1.25 nM", "< 1.25 nM", "< 1.25 nM", "10 to 25 nM"]
